- System: Noggin (protein binding on small-molecule microarray)
- protocol-summary: small molecules binding Noggin protein – biochemical, 635/667 nm fluorescence, primary screen (AID 1095);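 also: score merges 667 nm feature fluorescence with signal to noise over triplicate slides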
- measurement-setup: 635 nm fluorescence, higher = more signal
Would you please tag the item condition met when its composite z-score is 0.1 or above, and condition not met when it is below?

Exam item: Is it the case that COc1cc(OC)c(C(O)C2C=CC3C(=O)NC(=O)C3N2Nc2ccccn2)cc1Br (configuration not stated) has composite z-score reaching or exceeding 0.1?
Marked response: condition met

Exam item: Is it the case that COc1ccc(NN2C(C(O)c3ccc(N(C)C)cc3)C=CC3C(=O)N(C4CCCCC4)C(=O)C32)cc1 (configuration not stated) has composite z-score reaching or exceeding 0.1?
Marked response: condition met

Exam item: Is it the case that CCCCN1CC=CC23O[C@@H]4/C=C\CCCOC(=O)C4[C@H]2C(=O)N(CCCCCO)[C@@H]3C1=O (some centres not stated) has composite z-score reaching or exceeding 0.1?
Marked response: condition not met

Exam item: Is it the case that CCCCCN1CC=CC23O[C@@H]4C=CCOC(=O)[C@@H]4[C@H]2C(=O)N(C(C)CO)[C@@H]3C1=O (some centres not stated) has composite z-score reaching or exceeding 0.1?
Marked response: condition not met

Exam item: Is it the case that "CCOC(=O)C1=C[C@@H](C(C)C)N(S(=O)(=O)c2ccc(C)cc2)[C@H]1c1ccccc1F" has composite z-score reaching or exceeding 0.1?
Marked response: condition met

Exam item: Is it the case that "C=CC[C@]1(C(=O)NCc2ccccc2)N=C(c2ccc(OCCCO)cc2)O[C@H]1c1ccccc1CN=[N+]=[N-]" has composite z-score reaching or exceeding 0.1?
Marked response: condition met

Exam item: Is it the case that "COC(=O)[C@]1(CCC(=O)OC(C)(C)C)N=C(c2ccc(OCCCO)cc2)O[C@@H]1c1ccccc1" has composite z-score reaching or exceeding 0.1?
Marked response: condition not met

Exam item: Is it the case that "COc1ccc(NC(=O)O[C@H]2[C@H](OC(=O)c3cc4ccccc4[nH]3)[C@@H](OC(=O)c3cc4ccccc4[nH]3)[C@@H](OC)O[C@@H]2CO)cc1" has composite z-score reaching or exceeding 0.1?
Marked response: condition met

Exam item: Is it the case that "CC(C)[Si](C#CCCCC#N)(O[C@H](c1ccccc1)c1cn(Cc2cccc(Cl)c2)nn1)C(C)C" has composite z-score reaching or exceeding 0.1?
Marked response: condition met

Exam item: Is it the case that "CCCCC(=C=CC[C@H](O)c1cccc(OCCO)c1)C[C@H](O)c1ccccn1" has composite z-score reaching or exceeding 0.1?
Marked response: condition met

Exam item: Is it the case that "CC(=O)NCCCC[C@@H]1NC(=O)[C@H]2C[C@@H](C(=O)O)[C@@H](c3ccc(O)cc3)N2C1=O" has composite z-score reaching or exceeding 0.1?
Marked response: condition met

Exam item: Is it the case that "COC(=O)[C@@]1(Cc2ccc(F)cc2)[C@H]2c3cc(C(=O)N(C)C)n(Cc4ccc(C)o4)c3C[C@H]2CN1C(=O)c1ccccc1" has composite z-score reaching or exceeding 0.1?
Marked response: condition not met

Exam item: Is it the case that "COc1cc2c(cc1O)C=[N+](Cc1cc3c(cc1Br)OCO3)CC2" has composite z-score reaching or exceeding 0.1?
Marked response: condition not met

Exam item: Is it the case that "CC(=O)NCCCC[C@@H]1NC(=O)[C@H]2C[C@@H](C(=O)NCCCCCNC(=O)CS)[C@@H](c3ccc(O)cc3)N2C1=O" has composite z-score reaching or exceeding 0.1?
Marked response: condition not met

Exam item: Is it the case that "O=C(NCc1ccccc1)[C@@H]1c2ccccc2C(=O)N(C2Cc3ccccc3C2)[C@H]1c1ccc(CO)cc1" has composite z-score reaching or exceeding 0.1?
Marked response: condition met

Exam item: Is it the case that "CCOC(=O)C1=CC[C@@H](c2ccccc2)N(S(=O)(=O)c2ccc(C)cc2)[C@H]1c1ccc(CC)cc1" has composite z-score reaching or exceeding 0.1?
Marked response: condition not met

Exam item: Is it the case that "COc1ccc([Si](C)(C)[C@@H]2[C@@H](CCn3cc([C@H](O)c4ccccc4)nn3)O[C@]3(C(=O)N(Cc4cccc(N5CCC5=O)c4)c4ccccc43)[C@H]2C)cc1" has composite z-score reaching or exceeding 0.1?
Marked response: condition met
